CC50 values, listed per item
# ASSAY DETAILS: Cytotoxicity against human PBMC cells assessed as reduction in cell viability
# Format: toxicity, cell-based
# RUN PARAMETERS: pbmc
Express it in µM; write the number only.

Asked: Determine from records and report CC50 for CC(C)C[C@H](NC(=O)[C@H](Cc1cccc2ccccc12)NC(=O)OCc1ccccc1)C(=O)N[C@H](C=O)C[C@@H]1CCCNC1=O
Given back: 42.4

Asked: Output CC50 of CC(C)C[C@H](NC(=O)[C@H](Cc1cccc2ccccc12)NC(=O)c1cc(C(F)(F)F)on1)C(=O)N[C@H](C=O)C[C@@H]1CCCNC1=O
Given back: 49.9

Asked: Give the value of CC50 reported for the following: CCC(CC)COC(=O)[C@H](C)N[P@](=O)(OC[C@H]1O[C@@](C#N)(c2ccc3c(N)ncnn23)[C@H](O)[C@@H]1O)Oc1ccccc1
Given back: 4.9

Asked: Identify CC50 associated with the compound Cc1cc(C(=O)N[C@@H](Cc2cccc3ccccc23)C(=O)N[C@@H](CC(C)C)C(=O)N[C@H](C=O)C[C@@H]2CCCNC2=O)no1
Given back: 30.9

Asked: For CC(C)C[C@H](NC(=O)[C@H](Cc1cccc2ccccc12)NC(=O)OCc1ccccc1)C(=O)N[C@H](C=O)Cn1ccnn1 , write its CC50.
Given back: 35.7

Asked: For the compound Cc1cc(C(=O)N[C@@H](Cc2cccc3ccccc23)C(=O)N[C@@H](CC(C)C)C(=O)N[C@@H](C[C@@H]2CCCNC2=O)C(O)S(=O)(=O)[O-])no1.[Na+] (some centres undefined) , give its measured CC50 value.
Given back: 58.6

Then there is this compound:
Asked: Answer with reported CC50 of Cc1ccsc1C(=O)N[C@@H](Cc1cccc2ccccc12)C(=O)N[C@@H](CC(C)C)C(=O)N[C@H](C=O)C[C@@H]1CCCNC1=O
Given back: 51.5
